Catalogue of log10(IC50) readings, one per entry.
- target_entity: PolQ ATPase enzyme (1-894) (Homo sapiens (Human))
- Sequence (O75417 1-894): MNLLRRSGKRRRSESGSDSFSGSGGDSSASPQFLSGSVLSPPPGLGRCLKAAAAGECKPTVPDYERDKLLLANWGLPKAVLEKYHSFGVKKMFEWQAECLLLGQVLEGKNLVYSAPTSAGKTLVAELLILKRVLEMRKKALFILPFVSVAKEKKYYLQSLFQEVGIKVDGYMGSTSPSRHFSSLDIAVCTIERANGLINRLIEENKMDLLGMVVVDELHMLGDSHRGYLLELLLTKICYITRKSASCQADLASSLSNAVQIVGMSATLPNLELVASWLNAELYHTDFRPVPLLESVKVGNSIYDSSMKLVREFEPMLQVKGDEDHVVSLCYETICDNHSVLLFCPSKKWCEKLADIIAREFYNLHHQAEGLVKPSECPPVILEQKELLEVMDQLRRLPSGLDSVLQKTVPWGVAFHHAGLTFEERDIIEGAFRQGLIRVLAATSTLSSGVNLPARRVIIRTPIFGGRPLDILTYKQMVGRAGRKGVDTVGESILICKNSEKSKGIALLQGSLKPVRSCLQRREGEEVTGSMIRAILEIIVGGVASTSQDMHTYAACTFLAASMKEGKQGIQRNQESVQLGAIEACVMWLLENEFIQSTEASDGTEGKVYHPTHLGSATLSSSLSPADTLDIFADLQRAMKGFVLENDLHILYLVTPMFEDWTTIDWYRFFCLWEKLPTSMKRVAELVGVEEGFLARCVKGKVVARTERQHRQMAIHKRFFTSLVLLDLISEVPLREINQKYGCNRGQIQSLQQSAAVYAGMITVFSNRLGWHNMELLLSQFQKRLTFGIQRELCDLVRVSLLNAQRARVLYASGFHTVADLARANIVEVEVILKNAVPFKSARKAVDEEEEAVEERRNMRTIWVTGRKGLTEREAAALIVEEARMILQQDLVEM
- test: Polθ ATPase enzymatic assay (0.5 nM enzyme concentration), ADP-Glo
- Assay type: biochemical
- experimental_parameters: average IC50; 0.5 nM PolQ ATPase enzyme (1-894)
Would you kindly interpret these values as log10 of IC50 expressed in nM?

COc1cnc(C(F)F)cc1-c1cc(-c2nnc(C)o2)ccc1C(=O)Nc1ncc(C#CC2CC2)s1 [Compound 120] = 0.40

# input Name the recorded log10(IC50) for COc1cnc(C(F)F)cc1-c1cc(CCC2(O)CCS(=O)(=O)CC2)ccc1C(=O)Nc1nnc(C#CC2CC2)s1 [Compound 256] .
# output 0.46

# input One more compound: [2H]C([2H])([2H])N(C(=O)C1CCOC1)c1ccc(C(=O)Nc2nnc(C#CC3CC3)s2)c(-c2cc(C(F)F)ncc2OC)c1 (stereo not shown) [Compound 229]
# output 0.15

# input One more compound: COc1cnc(C(F)F)cc1-c1cc(-c2ccn(C)n2)cnc1C(=O)Nc1nnc(C#CC2CC2)s1 [Compound 156]
# output 0.04

# input One more compound: COc1cnc(Cl)cc1-c1cn(Cc2csc(C)n2)c(=O)cc1C(=O)Nc1nnc(C#CC2CC2)s1 [Compound 332]
# output 1.18

# input One more compound: CNC(=O)Cn1cc(-c2cc(Cl)ncc2OC)c(C(=O)Nc2nnc(C#CC3CC3)s2)cc1=O [Compound 104]
# output -0.51
